assay: Clearance in Wistar-Han rat at 1 mg/kg, iv or 2 mg/kg, po administered as single dose; assay type: ADME, organism-based; conditions: in vivo
reported property: clearance (mL/min/kg)
Report the figure in mL/min/kg without appending any unit label.

For orientation, consider the following solved cases.
INSERT INTO assay_data (molecule, reported_property, number) VALUES
  ('COc1cc(-c2ccc(C3CCc4ccc([C@H](C5CC5)[C@H](C)C(=O)[O-])cc4O3)nc2)c(F)cn1.[Na+] (stereo in doubt; 29)', 'clearance', 1.2),
  ('COc1cc(-c2ccc([C@@H]3CCc4ccc([C@H](C5CC5)[C@H](C)C(=O)[O-])cc4O3)c(F)c2)ccn1.[Na+]', 'clearance', 2.8);

# next molecule below
I am curious: what clearance value has been reported for COc1ccc(F)c(-c2ccc(C3CCc4ccc([C@H](C5CC5)[C@H](C)C(=O)[O-])cc4O3)cc2)c1.[Na+] (stereo in doubt; 14) ? 3.1

###

test: Cmax in Wistar rat at 750 mg/kg administered once daily for 4 days; assay type: ADME, organism-based; parameters: dose 750 mg/kg; conditions: in vivo
reported property: Cmax
Please don't drop the unit; write it after the number.

I am curious: what Cmax value has been reported for `COc1cc(-c2ccc([C@@H]3CCc4ccc([C@H](C5CC5)[C@H](C)C(=O)[O-])cc4O3)c(F)c2)ccn1.[Na+]` ? 545 µM

###

assay: Clearance in Beagle dog at 1 mg/kg, iv or 2 mg/kg, po administered as single dose; type: ADME, organism-based, Canis lupus familiaris; details: in vivo
reported property: clearance

I am curious: what clearance value has been reported for `COc1cc(-c2ccc([C@@H]3CCc4ccc([C@H](C5CC5)[C@H](C)C(=O)[O-])cc4O3)c(F)c2)ccn1.[Na+]` ? 1.6 mL/min/kg

###

test: Oral bioavailability in Beagle dog at 2 mg/kg administered as single dose; type: ADME, organism-based, Canis lupus familiaris; details: in vivo
reported property: bioavailability (%)
Report the figure in % without appending any unit label.

I am curious: what bioavailability value has been reported for `COc1cc(-c2ccc([C@@H]3CCc4ccc([C@H](C5CC5)[C@H](C)C(=O)[O-])cc4O3)c(F)c2)ccn1.[Na+]` ? 79

###

molecular target: UniProt O14842; experiment: Agonist activity at recombinant human GPR40 expressed in HEK293 cells assessed as increase in IP1 accumulation measured after 60 mins by HTRF assay relative to AM-1638; assay type: functional, cell-based
Sequence (O14842 whole entry): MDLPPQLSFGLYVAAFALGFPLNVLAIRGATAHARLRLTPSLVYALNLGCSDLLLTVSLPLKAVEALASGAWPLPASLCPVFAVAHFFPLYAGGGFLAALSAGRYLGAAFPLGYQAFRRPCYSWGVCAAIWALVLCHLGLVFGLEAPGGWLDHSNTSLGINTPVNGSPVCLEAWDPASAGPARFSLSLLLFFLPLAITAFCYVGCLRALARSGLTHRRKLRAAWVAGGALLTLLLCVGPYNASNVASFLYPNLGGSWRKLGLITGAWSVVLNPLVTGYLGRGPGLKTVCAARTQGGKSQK
reported property: max activation

INSERT INTO measurements (compound, reported_property, result) VALUES
  ('COc1cccc(-c2ccc(C3CCc4ccc([C@@H](CC(=O)O)C5CC5)cc4O3)cc2)c1 (single isomer, unassigned)', 'max activation', '394%');

I am curious: what max activation value has been reported for COc1cc(-c2ccc(C3CCc4ccc([C@H](C5CC5)[C@H](C)C(=O)O)cc4O3)cc2)c(F)cn1 (stereo in doubt; 20) ? > 179%

I am curious: what max activation value has been reported for COc1cc(-c2ccc(C3CCc4ccc([C@H](C5CC5)[C@H](C)C(=O)O)cc4O3)cc2)ccn1 (stereo in doubt; 22) ? > 179%

I am curious: what max activation value has been reported for O=C(O)C[C@H](c1ccc2c(c1)OC(c1ccc(-c3cccc(OC(F)(F)F)c3)cc1)CC2)C1CC1 (mixture of isomers) ? 385%
